target: HLA-B*0801 (Homo sapiens, UniProt P01889, A93T/A95T/D138N/E176V/E187T/K202T/Q94N/R180D/S35A/V36M/Y33D/Y91F); type: binding
Consider the following sequences; for each one, report its ELISA (Absorption-Pass/Fail Control).
Answers are plain numbers.

Example entries and their recorded answers appear below.
The sequence identified as DTIMEKNVT [SEQ ID NO: 32] registered its ELISA (Absorption-Pass/Fail Control) at 0.08

The sequence identified as NVTVTHAQD [SEQ ID NO: 27] registered its ELISA (Absorption-Pass/Fail Control) at 0.08

The sequence identified as DILEKKHNG [SEQ ID NO: 34] registered its ELISA (Absorption-Pass/Fail Control) at 0.53

The sequence identified as YIVEKANPV [SEQ ID NO: 26] registered its ELISA (Absorption-Pass/Fail Control) at 0.32

The sequence identified as TIMEKNVTV [SEQ ID NO: 18] registered its ELISA (Absorption-Pass/Fail Control) at 0.80

The sequence identified as WLLGNPMCD [SEQ ID NO: 38] registered its ELISA (Absorption-Pass/Fail Control) at 0.03

Consider the record given below.
The sequence identified as PLILRDCSV [SEQ ID NO: 36] registered its ELISA (Absorption-Pass/Fail Control) at 0.65

---

biological target: HLA-B*3501 (Homo sapiens, UniProt P01889, A329T/A93T/A95T/C349S/D201E/D98Y/E176V/E187L/E204Q/E69T/I218V/K202T/L119I/Q94N/R155S/R180L/S121R/S35A/S48A/T118I/V127L/V306I/V36M/Y140S/Y91F); type: binding
testReadout: ELISA (Absorption-Pass/Fail Control)

Example entries and their recorded answers appear below.
The sequence identified as LVKSDQICI [SEQ ID NO: 29] registered its ELISA (Absorption-Pass/Fail Control) at 0.04

The sequence identified as HPVGEADYFEY (T cell epitope) [SEQ ID NO: 8, reference compound] registered its ELISA (Absorption-Pass/Fail Control) at 0.55

The sequence identified as FINVPEWSY [SEQ ID NO: 10] registered its ELISA (Absorption-Pass/Fail Control) at 0.57

Next:
The sequence identified as SLVKSDQIC [SEQ ID NO: 16] registered its ELISA (Absorption-Pass/Fail Control) at −0.03
